- System: purple nutsedge
- Procedure Summary: Test D purple nutsedge
- Assay type: in vivo, Cyperus rotundus
- Assay Conditions: Rate 32 g/ha; Preemergence; 0 to 100 scale, 0 no injury, 100 complete control
Recorded Metric: Plant response rating, Purple nutsedge
// return just the number, without any unit appended

Request the reported Plant response rating, Purple nutsedge associated with `CC(C)N(C(=O)n1oc(=O)n(N(C)C)c1=O)c1ccc(F)cc1` 0

Record request: Plant response rating, Purple nutsedge value, item `CC(C)N(C(=O)n1oc(=O)n(C2CC2)c1=O)c1ccc(F)cc1` 0

Could you tell me which Plant response rating, Purple nutsedge is on file for `CC(C)N(C(=O)n1oc(=O)n(Cc2ccccc2)c1=O)c1ccc(F)cc1` ? 0

Look up Plant response rating, Purple nutsedge: `COc1ccccc1-n1c(=O)on(C(=O)N(c2ccc(F)cc2)C(C)C)c1=O` 0

---

- Tested on: bedstraw
- Procedure Summary: Test B pre/postemergence bedstraw
- Type: in vivo, Galium aparine
- Assay Conditions: Preemergence, Rate 62 g/ha; scale of 0 to 10 where 0 is no effect and 10 is complete control
Recorded Metric: Bedstraw plant response rating
Respond using a number only.

Return reported Bedstraw plant response rating; argument: `CC(C)N(C(=O)n1oc(=O)n(CCF)c1=O)c1ccc(F)cc1F` 8

Which Bedstraw plant response rating is listed for `CON=C(Cn1c(=O)on(C(=O)N(c2ccc(F)cc2)C(C)C)c1=O)C(F)(F)F` ? 0

Can you share its Bedstraw plant response rating? I mean this compound: `CC(C)N(C(=O)n1oc(=O)n(CC=Cc2ccccc2)c1=O)c1ccc(F)cc1` 0

Which Bedstraw plant response rating value belongs to `CCCCn1c(=O)on(C(=O)N(c2ccc(F)cc2F)C(C)C)c1=O` ? 9

Reported Bedstraw plant response rating, compound `Cc1ccccc1N(C(=O)n1oc(=O)n(-c2ccccc2C)c1=O)C(C)C` : ____ 0

Return reported Bedstraw plant response rating; argument: CC1CCCCC1n1c(=O)on(C(=O)N(c2ccccc2)C(C)C)c1=O (stereo not drawn) 0

What value of measured Bedstraw plant response rating is listed for `CC(C)N(C(=O)n1oc(=O)n(C2CCCC2)c1=O)c1ccccc1` ? 0

Which measured Bedstraw plant response rating value corresponds to `CCc1ccc(N(C(=O)n2oc(=O)n(-c3ccccc3C)c2=O)C(C)C)cc1` ? 0

Look up Bedstraw plant response rating for this compound: Cc1cccc(C)c1-n1c(=O)on(C(=O)N(C(C)C)C2C=CCCC2)c1=O (stereo not drawn) 0

---

Assignment: determine reported Rice plant response rating for the given compounds.
- Test system: rice
- Procedure Summary: Test B flood test rice
- Format: in vivo, Oryza sativa
- Assay Conditions: Rate 250 g/ha; Pre-emergence; flood-test species; scale 0 to 10, 0 is no effect, 10 is complete control
Lab note: jot the number down without any unit.

Recorded Rice plant response rating for CCCCc1ccc(N(C(=O)n2oc(=O)n(-c3ccccc3C)c2=O)C(C)C)cc1 [Compound 229] with rice, please? 0

Form field: Rice plant response rating recorded for Cc1ccccc1N(C(=O)n1oc(=O)n(-c2ccccc2C)c1=O)C(C)C [Compound 236] with rice (enter value) 0

Form field - read-out: Rice plant response rating; system: rice; submitted item: CCOc1nc(C(F)(F)F)c(Cn2c(=O)on(C(=O)N(c3ccccc3)C(C)C)c2=O)s1 [Compound 379] 0

---

Give measured Velvetleaf plant response rating for each item. Keep answers brief.
- System: velvetleaf
- Procedure Summary: Test B pre/postemergence velvetleaf
- Assay type: in vivo, Abutilon theophrasti
- Assay Conditions: Postemergence, Rate 62 g/ha; scale 0 to 10, 0 is no effect, 10 is complete control
Output spec: single numeric token, no unit.

What measured Velvetleaf plant response rating goes with `Cc1cccc(C(C)C)c1-n1c(=O)on(C(=O)N(c2ccc(F)cc2)C(C)C)c1=O` ? 3

// returns reported Velvetleaf plant response rating for input `COc1ccccc1-n1c(=O)on(C(=O)N(c2ccc(F)cc2F)C(C)C)c1=O` 0

# query: Velvetleaf plant response rating of entry `CC(C)N(C(=O)n1oc(=O)n(-c2cccc3c2CCCC3)c1=O)c1ccc(F)cc1` 0

---

Assignment: determine reported Plant response rating, Redroot pigweed for the given compounds.
- Test system: pigweed
- Procedure Summary: Test B pre/postemergence pigweed
- Format: in vivo, Amaranthus retroflexus
- Assay Conditions: Rate 250 g/ha, Postemergence; scale 0 to 10, 0 is no effect, 10 is complete control
Note: the reply should be a number with no unit written.

Need Plant response rating, Redroot pigweed of CC(C)N(C(=O)n1oc(=O)n(C)c1=O)c1ccc(F)cc1 [Compound 138] , thanks. 7

Using the record for CC(C)N(C(=O)n1oc(=O)n([C@@H](C)c2ccccc2)c1=O)c1ccc(F)cc1 [Compound 167] , report its Plant response rating, Redroot pigweed. 3

Recorded Plant response rating, Redroot pigweed of CCN(CC)C(=O)n1oc(=O)n(Cc2ccccc2)c1=O [Compound 152] , please. 0

Tell me the measured Plant response rating, Redroot pigweed of CC(C)N(C(=O)n1oc(=O)n([C@@H](C)c2ccccc2)c1=O)c1ccc(Cl)cc1 [Compound 174] , please. 6

Consider the compound shown here: COc1ccccc1Cn1c(=O)on(C(=O)N(c2ccccc2)C(C)C)c1=O [Compound 104] What is its recorded Plant response rating, Redroot pigweed? 3

---

- Tested on: soybean
- Procedure Summary: Test B pre/postemergence soybean
- Assay type: in vivo, Glycine max
- Assay Conditions: Rate 500 g/ha, Postemergence; scale 0 to 10, 0 no effect, 10 complete control
Recorded Metric: Soybean plant response rating
I'd appreciate a reply containing only the number, no unit.

# input compound: `CC(C)N(C(=O)n1oc(=O)n([C@H](C)c2ccccc2)c1=O)c1ccc(F)cc1F` ; wanted: its Soybean plant response rating 2

# query: Soybean plant response rating of entry CCOC(=O)C(C)N(C(=O)n1oc(=O)n(CC)c1=O)c1ccc(F)cc1 (centres unmarked) 1

Query (compound): `CC(C)N(C(=O)n1oc(=O)n(C2CC2)c1=O)c1ccc(F)cc1` ; field requested: Soybean plant response rating 6

Recorded Soybean plant response rating for `CC(C)N(C(=O)n1oc(=O)n(Cc2cccs2)c1=O)c1ccc(F)cc1F` , please? 3

Which Soybean plant response rating value belongs to `CC(C)N(C(=O)n1oc(=O)n(-c2cnn(C)c2)c1=O)c1ccccc1` ? 4

Using the record for `CC(C)N(C(=O)n1oc(=O)n(-c2ccsc2)c1=O)c1ccc(F)cc1` , report its Soybean plant response rating. 1

If you can, please state the reported Soybean plant response rating value of `CC(C)N(C(=O)n1oc(=O)n(CC(C)(C)C)c1=O)c1ccc(F)cc1` . 4

Could you tell me which Soybean plant response rating is on file for `CCCCc1ccc(N(C(=O)n2oc(=O)n(-c3ccccc3C)c2=O)C(C)C)cc1` ? 2

---

- Test system: crabgrass
- Procedure Summary: Test B pre/postemergence crabgrass
- Type: in vivo, Digitaria sanguinalis
- Assay Conditions: Postemergence, Rate 125 g/ha; scale of 0 to 10 where 0 is no effect and 10 is complete control
Provide the reported Crabgrass plant response rating of each item.
Answer with a bare number; do not write a unit.

Please give the measured Crabgrass plant response rating for this molecule: CCN(CC)C(=O)n1oc(=O)n(Cc2ccccc2)c1=O [Compound 152] 0

Return reported Crabgrass plant response rating; argument: C#CC(CC)n1c(=O)on(C(=O)N(c2ccc(F)cc2)C(C)C)c1=O (stereo not shown) [Compound 753] 4

Suppose we examine the molecule CC(C)N(C(=O)n1oc(=O)n(CCF)c1=O)c1ccc(Cl)cc1 [Compound 668] ; what Crabgrass plant response rating value has been reported? 9

Entry CC(C)N(C(=O)n1oc(=O)n(-c2cnn(C)c2Cl)c1=O)c1ccc(F)cc1 [Compound 97] : reported Crabgrass plant response rating = ? 2

---

- Tested on: velvetleaf
- Procedure Summary: Test B pre/postemergence velvetleaf
- Format: in vivo, Abutilon theophrasti
- Assay Conditions: Preemergence, Rate 500 g/ha; scale of 0 to 10 where 0 is no effect and 10 is complete control
Please provide measured Velvetleaf plant response rating for the entries that follow.
Respond using a number only.

Could you share what Velvetleaf plant response rating was measured for CC(C)N(C(=O)n1oc(=O)n(CCC(F)(F)F)c1=O)c1ccccc1 [Compound 584] , tested on velvetleaf? 5

Query for velvetleaf: what Velvetleaf plant response rating does the record show for CC(C)N(C(=O)n1oc(=O)n(CCC2OCCO2)c1=O)c1ccccc1 [Compound 560] ? 5

Give the reported Velvetleaf plant response rating for CCOc1nc(C(F)(F)F)c(Cn2c(=O)on(C(=O)N(c3ccc(F)cc3)C(C)C)c2=O)s1 [Compound 381] (system: velvetleaf). 0

Can you look up Velvetleaf plant response rating on velvetleaf for CC(C)N(C(=O)n1oc(=O)n(CC2=NCCO2)c1=O)c1ccccc1 [Compound 495] ? 0

State its Velvetleaf plant response rating on velvetleaf: Cc1ccccc1-n1c(=O)on(C(=O)N(c2ccc(Cl)cc2)C(C)C2CC2)c1=O (stereo not drawn) [Compound 330] 0

Lab request: please report Velvetleaf plant response rating under test system velvetleaf for CCN(C(=O)n1oc(=O)n(Cc2ccco2)c1=O)C1CCCCC1 [Compound 312] 0

Reference source for all entries: patent US6737383B1
